Test system: NCI-H358
experimental-details: relative viability (nuclei count vs DMSO), 5 days (fraction); higher = more cells survive
condition-details: first compound 0.5 µM
reported-endpoint: relative viability
I only need the number, thanks.

1) Nc1ccn([C@@H]2O[C@H](CO)[C@@H](O)[C@@H]2O)c(=O)n1 [Cytarabine] + N=C(N)NC(=N)NCCc1ccccc1 [Phenformin] (partner 250 µM)    0.076
2) Nc1ccn([C@@H]2O[C@H](CO)[C@@H](O)[C@@H]2O)c(=O)n1 [Cytarabine] + CS(=O)(=O)N1CCN(Cc2cc3nc(-c4cccc5[nH]ncc45)nc(N4CCOCC4)c3s2)CC1 [Pictilisib] (partner 1 µM)    0.155

Let's switch to this compound now.
// returns reported relative viability for input Nc1ccn([C@@H]2O[C@H](CO)[C@@H](O)[C@@H]2O)c(=O)n1 [Cytarabine] + NC(=O)Nc1cc(-c2cccc(F)c2)sc1C(=O)N[C@H]1CCCNC1 [AZD7762] (partner 0.2 µM) 0.182

###

System: NCI-H1650
experimental-details: relative viability (nuclei count vs DMSO), 5 days (fraction); higher = more cells survive
condition-details: first compound 0.01581 µM
reported-endpoint: relative viability
I only need the number, thanks.

1) Nc1ccn([C@@H]2O[C@H](CO)[C@@H](O)[C@@H]2O)c(=O)n1 [Cytarabine] + C[C@@H](Oc1cc(-c2cnn(C3CCNCC3)c2)cnc1N)c1c(Cl)ccc(F)c1Cl [Crizotinib] (partner 1 µM)    1.05

// returns reported relative viability for input COc1cc2nccc(Oc3ccc(NC(=O)Nc4cc(C)on4)c(Cl)c3)c2cc1OC [Tivozanib] + COc1cc2c(Oc3ccc(NC(=O)C4(C(=O)Nc5ccc(F)cc5)CC4)cc3F)ccnc2cc1OCCCN1CCOCC1 [Foretinib] (partner 0.25 µM) 1.18

Follow-up entry: COc1cc2nccc(Oc3ccc(NC(=O)Nc4cc(C)on4)c(Cl)c3)c2cc1OC [Tivozanib] + CS(=O)(=O)N1CCN(Cc2cc3nc(-c4cccc5[nH]ncc45)nc(N4CCOCC4)c3s2)CC1 [Pictilisib] (partner 1 µM) 0.594

###

Test system: RERF-LC-KJ
experimental-details: relative viability (nuclei count vs DMSO), 5 days (fraction); higher = more cells survive
condition-details: first compound 15.81 µM
reported-endpoint: relative viability
I only need the number, thanks.

Find the measured relative viability: item O=C(O)CCCCC(CCSCc1ccccc1)SCc1ccccc1 (stereo not given) [CPI-613] + NC(=O)Nc1cc(-c2cccc(F)c2)sc1C(=O)N[C@H]1CCCNC1 [AZD7762] (partner 0.2 µM) , target or system RERF-LC-KJ. 0.917

Follow-up entry: O=C(O)CCCCC(CCSCc1ccccc1)SCc1ccccc1 (stereo not given) [CPI-613] + O=C(CCCCCCC(=O)Nc1ccccc1)NO [Vorinostat] (partner 1 µM) 0.53

Follow-up entry: O=C(O)CCCCC(CCSCc1ccccc1)SCc1ccccc1 (stereo not given) [CPI-613] + Cc1nc(NC(=O)N2CCC[C@H]2C(N)=O)sc1-c1ccnc(C(C)(C)C(F)(F)F)c1 [Alpelisib] (partner 2 µM) 1.34

Follow-up entry: O=C(O)CCCCC(CCSCc1ccccc1)SCc1ccccc1 (stereo not given) [CPI-613] + CS(=O)(=O)N1CCN(Cc2cc3nc(-c4cccc5[nH]ncc45)nc(N4CCOCC4)c3s2)CC1 [Pictilisib] (partner 1 µM) 0.496

Follow-up entry: O=C(O)CCCCC(CCSCc1ccccc1)SCc1ccccc1 (stereo not given) [CPI-613] + COc1cc2c(Oc3ccc(NC(=O)C4(C(=O)Nc5ccc(F)cc5)CC4)cc3F)ccnc2cc1OCCCN1CCOCC1 [Foretinib] (partner 0.25 µM) 0.763

###

Tested on: NCI-H647
experimental-details: relative viability (nuclei count vs DMSO), 5 days (fraction); higher = more cells survive
condition-details: first compound 0.005 µM
reported-endpoint: relative viability

Find the measured relative viability: item Nc1ccn([C@@H]2O[C@H](CO)[C@@H](O)[C@@H]2O)c(=O)n1 [Cytarabine] + CC1(C)CCC(c2ccc(Cl)cc2)=C(CN2CCN(c3ccc(C(=O)NS(=O)(=O)c4ccc(N[C@H](CCN5CCOCC5)CSc5ccccc5)c(S(=O)(=O)C(F)(F)F)c4)cc3)CC2)C1 [Navitoclax] (partner 0.5 µM) , target or system NCI-H647. 0.73

Follow-up entry: Nc1ccn([C@@H]2O[C@H](CO)[C@@H](O)[C@@H]2O)c(=O)n1 [Cytarabine] + COc1cccc2cc(-c3nc([C@H]4CC[C@H](C(=O)O)CC4)n4ncnc(N)c34)[nH]c12 [OSI-027] (partner 0.5 µM) 0.479

Follow-up entry: COc1cc2nccc(Oc3ccc(NC(=O)Nc4cc(C)on4)c(Cl)c3)c2cc1OC [Tivozanib] + CS(=O)(=O)N1CCN(Cc2cc3nc(-c4cccc5[nH]ncc45)nc(N4CCOCC4)c3s2)CC1 [Pictilisib] (partner 1 µM) 0.419

Follow-up entry: COc1cc2nccc(Oc3ccc(NC(=O)Nc4cc(C)on4)c(Cl)c3)c2cc1OC [Tivozanib] + Nc1nc2[nH]cc(CCc3ccc(C(=O)N[C@@H](CCC(=O)O)C(=O)O)cc3)c2c(=O)[nH]1 [Pemetrexed] (partner 0.2 µM) 0.155

Follow-up entry: Nc1ccn([C@@H]2O[C@H](CO)[C@@H](O)[C@@H]2O)c(=O)n1 [Cytarabine] + CC(=O)Nc1cccc(-n2c(=O)n(C3CC3)c(=O)c3c(Nc4ccc(I)cc4F)n(C)c(=O)c(C)c32)c1 [Trametinib] (partner 0.02 µM) 0.449

Follow-up entry: Nc1ccn([C@@H]2O[C@H](CO)[C@@H](O)[C@@H]2O)c(=O)n1 [Cytarabine] + Cc1cc(Nc2cc(N3CCN(C)CC3)nc(Sc3ccc(NC(=O)C4CC4)cc3)n2)n[nH]1 [Tozasertib] (partner 0.1 µM) 0.205

###

# key: entry, value: relative viability
Test system: NCI-H358
experimental-details: relative viability (nuclei count vs DMSO), 5 days (fraction); higher = more cells survive
condition-details: first compound 0.5 µM
I only need the number, thanks.

1. COc1cc2nccc(Oc3ccc(NC(=O)Nc4cc(C)on4)c(Cl)c3)c2cc1OC [Tivozanib] + CC(=O)c1c(C)c2cnc(Nc3ccc(N4CCNCC4)cn3)nc2n(C2CCCC2)c1=O [Palbociclib] (partner 0.5 µM)    0.157
2. Nc1ccn([C@@H]2O[C@H](CO)[C@@H](O)[C@@H]2O)c(=O)n1 [Cytarabine] + Cc1nc(NC(=O)N2CCC[C@H]2C(N)=O)sc1-c1ccnc(C(C)(C)C(F)(F)F)c1 [Alpelisib] (partner 2 µM)    0.148
3. Nc1ccn([C@@H]2O[C@H](CO)[C@@H](O)[C@@H]2O)c(=O)n1 [Cytarabine] + O=C(CCCCCCC(=O)Nc1ccccc1)NO [Vorinostat] (partner 1 µM)    0.113

// returns reported relative viability for input Nc1ccn([C@@H]2O[C@H](CO)[C@@H](O)[C@@H]2O)c(=O)n1 [Cytarabine] + Nc1nc2[nH]cc(CCc3ccc(C(=O)N[C@@H](CCC(=O)O)C(=O)O)cc3)c2c(=O)[nH]1 [Pemetrexed] (partner 0.2 µM) 0.116

Follow-up entry: COc1cc2nccc(Oc3ccc(NC(=O)Nc4cc(C)on4)c(Cl)c3)c2cc1OC [Tivozanib] + CS(=O)(=O)N1CCN(Cc2cc3nc(-c4cccc5[nH]ncc45)nc(N4CCOCC4)c3s2)CC1 [Pictilisib] (partner 1 µM) 0.367

###

System: HARA
experimental-details: relative viability (nuclei count vs DMSO), 5 days (fraction); higher = more cells survive
condition-details: first compound 0.005 µM
reported-endpoint: relative viability

1) Nc1ccn([C@@H]2O[C@H](CO)[C@@H](O)[C@@H]2O)c(=O)n1 [Cytarabine] + CC(=O)c1c(C)c2cnc(Nc3ccc(N4CCNCC4)cn3)nc2n(C2CCCC2)c1=O [Palbociclib] (partner 0.5 µM)    0.291
2) COc1cc2nccc(Oc3ccc(NC(=O)Nc4cc(C)on4)c(Cl)c3)c2cc1OC [Tivozanib] + Cc1cc(Nc2cc(N3CCN(C)CC3)nc(Sc3ccc(NC(=O)C4CC4)cc3)n2)n[nH]1 [Tozasertib] (partner 0.1 µM)    0.113

Let's switch to this compound now.
// returns reported relative viability for input Nc1ccn([C@@H]2O[C@H](CO)[C@@H](O)[C@@H]2O)c(=O)n1 [Cytarabine] + N=C(N)NC(=N)NCCc1ccccc1 [Phenformin] (partner 250 µM) 0.359

###

Test system: ABC-1
experimental-details: relative viability (nuclei count vs DMSO), 5 days (fraction); higher = more cells survive
condition-details: first compound 0.01581 µM
reported-endpoint: relative viability
I only need the number, thanks.

1. COc1cc2nccc(Oc3ccc(NC(=O)Nc4cc(C)on4)c(Cl)c3)c2cc1OC [Tivozanib] + N=C(N)NC(=N)NCCc1ccccc1 [Phenformin] (partner 250 µM)    0.246
2. Nc1ccn([C@@H]2O[C@H](CO)[C@@H](O)[C@@H]2O)c(=O)n1 [Cytarabine] + Cc1nc(NC(=O)N2CCC[C@H]2C(N)=O)sc1-c1ccnc(C(C)(C)C(F)(F)F)c1 [Alpelisib] (partner 2 µM)    1.4
3. Nc1ccn([C@@H]2O[C@H](CO)[C@@H](O)[C@@H]2O)c(=O)n1 [Cytarabine] + CCNC(=O)c1noc(-c2cc(C(C)C)c(O)cc2O)c1-c1ccc(CN2CCOCC2)cc1 [Luminespib] (partner 0.01 µM)    0.624

Find the measured relative viability: item COc1cc2nccc(Oc3ccc(NC(=O)Nc4cc(C)on4)c(Cl)c3)c2cc1OC [Tivozanib] + CC(C)C[C@H](NC(=O)[C@H](Cc1ccccc1)NC(=O)c1cnccn1)B(O)O [Bortezomib] (partner 0.002 µM) , target or system ABC-1. 0.3

Follow-up entry: Nc1ccn([C@@H]2O[C@H](CO)[C@@H](O)[C@@H]2O)c(=O)n1 [Cytarabine] + O=C(c1cc(Cc2n[nH]c(=O)c3ccccc23)ccc1F)N1CCN(C(=O)C2CC2)CC1 [Olaparib] (partner 8 µM) 0.756

Follow-up entry: Nc1ccn([C@@H]2O[C@H](CO)[C@@H](O)[C@@H]2O)c(=O)n1 [Cytarabine] + C[C@@H](Oc1cc(-c2cnn(C3CCNCC3)c2)cnc1N)c1c(Cl)ccc(F)c1Cl [Crizotinib] (partner 1 µM) 0.821

Follow-up entry: Nc1ccn([C@@H]2O[C@H](CO)[C@@H](O)[C@@H]2O)c(=O)n1 [Cytarabine] + C[C@]1(O)C[C@@H](c2nc(-c3ccc4ccc(-c5ccccc5)nc4c3)c3c(N)nccn32)C1 [Linsitinib] (partner 1 µM) 0.99
